- tgt: BRD4 (Homo sapiens)
- Construct: tandem (BD1 + BD2)
- procedure_summary: AlphaScreen binding assay with H4 peptide ([…]) K5/[…] Ac, duplicate dose-response (IC50 […])
- protocol_conditions: read-out: DATA 2
measure_name: IC50
Field note: include the unit after the figure.

State the recorded IC50 for this entry: O=c1cc(-c2ccc(O)c(-c3c(O)cc(O)c4c(=O)cc(-c5ccc(O)cc5)oc34)c2)oc2cc(O)cc(O)c12 [amentoflavone]
30.4 µM
